System: B. distasonis 8503
experimental_protocol: MIC, in vitro antibacterial activity (standard strains)
Type: cell-based
experimental_setup: Parabacteroides distasonis, 8503; 10^6 cells/ml; Gram -; read-out: MIC
This section presents molecules with their documented MIC values.
Report as a plain number; the unit µg/mL is understood.

Use the examples below as a reference point.
C[C@@H]1CN(c2c(F)cc3c(=O)c(C(=O)O)cn(C4CC4)c3c2F)C[C@H]1N (relative stereo) | 0.39
C[C@@H]1CN(c2c(F)cc3c(=O)c(C(=O)O)cn(C4CC4)c3c2Cl)C[C@H]1N (relative stereo) | 0.1
CC1CN(c2c(F)cc3c(=O)c(C(=O)O)cn(C4CC4)c3c2Cl)CC1CN (stereo not shown) | 0.39
CCNCC1CN(c2c(F)cc3c(=O)c(C(=O)O)cn(C4CC4)c3c2F)CC1C (stereo not shown) | 3.13
C[C@H]1CN(c2c(F)cc3c(=O)c(C(=O)O)cn(C4CC4)c3c2F)C[C@H]1N.Cl (relative stereo) | 0.78

[ask] Need MIC, item C[C@@H]1CN(c2c(F)cc3c(=O)c(C(=O)O)cn(C4CC4)c3c2Br)C[C@H]1N (relative stereo)
[reply] 0.2

[ask] Same question for C[C@H]1CN(c2c(F)cc3c(=O)c(C(=O)O)cn(C4CC4)c3c2Cl)C[C@H]1N (relative stereo) please.
[reply] 0.2
